# Tested on: endogenous NAMPT in U2OS cells
# experiment.summary: Cellular NAD+ modulation assay (NAD/NADH-Glo, U2OS cells)
# Type: cell-based
# condition.context: Homo sapiens, 24 hours incubation, cellular NAD+
measurement.type: EC50

Cn1ncc(Cl)c1C[C@H]1c2ccccc2C(=O)N1C[C@H]1C[C@]2(CNC(=O)O2)C1: < 0.5 µM
N#Cc1cncc(C#N)c1CC1c2ccccc2C(=O)N1Cc1ccc2[nH]nnc2c1 (stereo not shown): < 0.5 µM

-- ask # returns recorded EC50 (system: endogenous NAMPT in U2OS cells) for Cn1nc(C2CNC2)c(Cl)c1CC1c2ccccc2C(=O)N1Cc1ccc2[nH]nnc2c1 (stereo not shown)
-- reply 0.5 to 5 µM

-- ask # returns recorded EC50 (system: endogenous NAMPT in U2OS cells) for COc1ccc(CN2C(=O)c3ccc(Br)cc3C2Cc2c(Cl)cnn2C)cn1 (stereo not shown)
-- reply 0.5 to 5 µM

###

# study.target: human enzyme NAMPT (full length) (Homo sapiens, UniProt P43490)
# Construct: human enzyme NAMPT (full length)
# Sequence (P43490 whole entry): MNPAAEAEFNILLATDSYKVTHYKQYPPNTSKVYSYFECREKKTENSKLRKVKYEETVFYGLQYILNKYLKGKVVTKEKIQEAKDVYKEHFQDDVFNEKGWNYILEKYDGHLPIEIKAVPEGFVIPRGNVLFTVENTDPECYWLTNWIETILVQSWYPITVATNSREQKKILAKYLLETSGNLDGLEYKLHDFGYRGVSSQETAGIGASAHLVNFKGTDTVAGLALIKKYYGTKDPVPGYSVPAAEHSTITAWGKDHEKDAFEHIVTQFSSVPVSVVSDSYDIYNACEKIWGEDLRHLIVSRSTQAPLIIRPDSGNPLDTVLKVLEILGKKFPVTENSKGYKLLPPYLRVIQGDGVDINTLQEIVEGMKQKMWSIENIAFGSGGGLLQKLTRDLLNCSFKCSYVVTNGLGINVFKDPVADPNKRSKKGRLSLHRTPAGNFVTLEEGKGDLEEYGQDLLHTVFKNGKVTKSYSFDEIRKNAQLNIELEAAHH
# experiment.summary: NMN fluorescence biochemical assay (stimulation of NMN synthesis by NAMPT)
# condition.context: fold change of maximal activation compared to DMSO
measurement.type: Enzymatic Emax

Answered examples (6):
Cn1ncc(Cl)c1C[C@H]1c2ccccc2C(=O)N1C/C=C/c1c[nH]nn1: B (3≥B>2)
O=c1[nH]c2ccc(Cn3c(=O)c4ccccc4n3Cc3ccccc3C(F)(F)F)cc2o1: B (3≥B>2)
O=C1c2ccc(N3CCCC3)cc2C(=O)N1Cc1ccc(O)cc1: A (A>3)
Cn1ncc(Cl)c1CC1c2cc(CN3CCOCC3)ccc2C(=O)N1Cc1ccc2[nH]nnc2c1 (centres unmarked): A (A>3)
Cn1ncc(Cl)c1CC1c2ccccc2S(=O)(=O)N1CC1CC2(CNC(=O)O2)C1 (centres unmarked): B (3≥B>2)
N#Cc1cccc(CC2c3ccccc3C(=O)N2Cc2ccc3[nH]c(=O)oc3c2)c1 (centres unmarked): A (A>3)

Now for another entry.
-- ask # get_value(readout='Enzymatic Emax', item= Cn1c2ccccc2c(=O)n1Cc1ccc2[nH]c(=O)oc2c1 )
-- reply B (3≥B>2)

###

# study.target: human enzyme NAMPT (full length) (Homo sapiens, UniProt P43490)
# Construct: human enzyme NAMPT (full length)
# experiment.summary: NMN fluorescence biochemical assay (stimulation of NMN synthesis by NAMPT)
# condition.context: fold change of maximal activation compared to DMSO
measurement.type: Enzymatic Emax

Answered examples (5):
O=C1c2ccccc2C(COc2cccc(Cl)n2)N1Cc1ccc2[nH]c(=O)oc2c1 (centres unmarked): B (3≥B>2)
Cn1cc(Cl)c(CC2c3ccccc3C(=O)N2Cc2ccc3[nH]nnc3c2)n1 (centres unmarked): B (3≥B>2)
CN1C[C@]2(C[C@H](CN3C(=O)c4ccccc4[C@@H]3Cc3c(Cl)cnn3C)C2)OC1=O: B (3≥B>2)
CC1c2c(cccc2C2CC2)C(=O)N1Cc1ccc2[nH]c(=O)oc2c1 (centres unmarked): B (3≥B>2)
O=c1[nH]n(Cc2ccc(O)cc2)c2ccccc12: B (3≥B>2)

-- ask # get_value(readout='Enzymatic Emax', item= N#Cc1cccc(CC2c3ccccc3C(=O)N2Cc2ccc3[nH]c(=O)oc3c2)n1 (centres unmarked) )
-- reply B (3≥B>2)

###

# Test system: endogenous NAMPT in U2OS cells
# experiment.summary: Cellular NAD+ modulation assay (NAD/NADH-Glo, U2OS cells)
# Type: cell-based
# condition.context: Homo sapiens, 24 hours incubation, cellular NAD+
measurement.type: EC50

Answered examples (7):
COc1ccc(CN2C(=O)c3ccc(OC(F)F)cc3C2Cc2c(Cl)cnn2C)cn1 (centres unmarked): 500 to 5000 nM
O=C1c2ccccc2C(Cc2nc(Br)sc2Cl)N1Cc1ccc2[nH]nnc2c1 (centres unmarked): 500 to 5000 nM
CN(C)CCOc1nn(C)c(CC2c3ccccc3C(=O)N2CC2CC3(CNC(=O)O3)C2)c1Cl (centres unmarked): 500 to 5000 nM
Cc1ccc2c(c1)C(Cc1c(Cl)cnn1C)N(CC1CC3(CNC(=O)O3)C1)C2=O (centres unmarked): < 500 nM
Cc1ncnc(C#N)c1CC1c2ccccc2C(=O)N1Cc1ccc2[nH]nnc2c1 (centres unmarked): < 500 nM
O=C1c2ccccc2C(Cc2ncccc2Br)N1Cc1ccc2[nH]nnc2c1F (centres unmarked): 500 to 5000 nM
COc1ccc(CN2C(Cc3c(Cl)cnn3C)c3ccccc3S2(=O)=O)cc1 (centres unmarked): < 500 nM

Now for another entry.
-- ask # get_value(readout='EC50', item= Cn1ncc(Cl)c1CC1c2cc(C3COC3)ccc2C(=O)N1CC1CC2(CNC(=O)O2)C1 (centres unmarked) )
-- reply 500 to 5000 nM
